- TEST DETAILS: inhibitors of TNFa-induced NFkB p65 translocation, primary screen, imaging, HUVEC, MLSMR starter and 10KST1 sets (AID 438);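 further: compound added about 3h40 before a 20 min TNFalpha stimulation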
- TEST SETTINGS: HUVEC TNFa-induced p65 nuclear translocation; measured here: nuclei count (cytotoxicity indicator), at 2.08 µM
QUANTITY NAME: cell count
Provide a numeric answer; units are not to be included.

Here's what some known entries look like.
                                   molecule  obs_value
0         CCc1nnc(SCc2cn3c(C)cc(C)nc3n2)n1N        571
1  CCN1CCN(C(=O)C2CCN(C(=O)c3cc4sccc4n3CC)CC2)CC1        642
2       O=C(CSc1nnnn1C1CCCCC1)N1CCc2ccccc21        348
3  CC1CN(c2nc3ccccc3nc2C(C#N)C(=O)NCc2ccc3c(c2)OCO3)CC(C)O1 (configuration not stated)        340
4           CCCCCc1c(C)nc(SCC(=O)O)[nH]c1=O        611
5  CCOC(=O)C1CCCN(C(=O)c2ccc(CS(=O)(=O)c3ccc(Br)cc3)o2)C1 (configuration not stated)        509

// recorded cell count for `Cc1cc(C(=O)NCCN2CCN(c3cccc(Cl)c3)CC2)n(-c2ccccc2)n1` : 647

====

The compounds listed here are annotated with their inhibition.
- TEST DETAILS: endothelial E-selectin expression blockers – imaging, HUVEC, immunofluorescence, MLSMR starter and 10KST1 sets, primary screen (AID 487);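 further: signal is fraction of cell area covered by stained E-selectin grains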
- TEST SETTINGS: HUVEC TNFalpha-induced E-selectin immunofluorescence imaging, at 2 µM; stronger effect = higher value
Reply numerically in %, unit not repeated.

Would you please look over these solved cases?
>>> print(df.to_string())
                                   compound  obs_value
0   O=C(c1ccc2c(c1)c(=O)oc1ccccc12)N1CCCCC1       19.4
1  COc1ccccc1-n1c(=O)[nH]c2c(C(N)=O)nc(CC(C)C)nc21        2.2
2  Cc1ccc(C2c3sc(=O)[nH]c3SC3C(=O)NC(=O)C32)cc1 (stereo not given)        -18
3  O=C(CCN1C(=O)c2ccccc2C1=O)N1CCN(C(=O)c2ccccc2)CC1       -145
4  CCOC(=O)c1sc(NC(=O)CSc2nnc3c4ccccc4n(CC)c3n2)nc1C       -6.3

inhibition reading for `O=C(Cn1nnc(-c2ccc(CN3CCOCC3)cc2)n1)NC1CCCCC1` : -20.9

get_value(item= Cc1nc(C)c(C(=O)C2=C(O)C(=O)N(CCN3CCOCC3)C2c2ccco2)s1 (stereo not given) , readout=inhibition) returns -2.9

Record summary for `CC(C)CC(=O)Nc1ccccc1-c1nnn(CC(=O)N2CCOCC2)n1` : reported inhibition = 25.9

Entry `CCOC(=O)N1CCC(NC(=O)c2cc(C(=O)NC3CCCC3)ccc2CO)CC1` — recorded inhibition = -14.1

Measured inhibition, `COc1ccc2cc(C(=O)NCc3ccco3)c(=Nc3ccc(C(=O)O)cc3)oc2c1` : -56.7

====

- TEST DETAILS: endothelial E-selectin expression blockers – imaging, HUVEC, immunofluorescence, MLSMR starter and 10KST1 sets, primary screen (AID 487);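 further: signal is fraction of cell area covered by stained E-selectin grains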
- TEST SETTINGS: HUVEC TNFalpha-induced E-selectin immunofluorescence imaging, at 2 µM; stronger effect = higher value
Record YES whenever inhibition is at -40% or higher; record NO when lower.

>>> print(df.to_string())
                                   compound  classification
0  COc1ccc2c(c1)OC(O)(C(F)F)CC2=O (stereo unspecified)              NO
1  COc1ccc2[nH]c(=O)c(CN(CC3CCCO3)C(=O)Nc3ccc(F)cc3)cc2c1 (stereo unspecified)             YES
2  O=C(c1ccc(COc2c(F)c(F)c(F)c(F)c2F)o1)N1CCOCC1             YES
3    CCn1c(Cc2ccccc2)nnc1SCC(=O)Nc1cc(C)on1             YES

Now for another entry.
Ask: Tell me whether inhibition is at least -40% here: `CN(C)c1ccc(NC(=O)c2ccncc2)c2ccccc12`
Reply: NO
